biological target: T1, HLA-DR15 (HLA-DRB1*15:01) (human); assay: competition ELISA vs biotin-A3 152-166
T1 construct: mature; purified from homozygous EBV-transformed lymphoblastoid cells with antibody L243
No end group written: not given here.
MEASURED ATTRIBUTE: relative affinity
Would you mind answering with just the numeric figure?

DWLVQVQMKFRLLQE-NH2 [CCNB1 207-221] | 7

According to the records, this binder SEYVKDIYAYLRQLE-NH2 [CCNB1 168-182] displays relative affinity of 12

According to the records, this binder RAILIDWLVQVQMKF-NH2 [CCNB1 202-216] displays relative affinity of 4
